The entries below are paired with their reported cell viability.
Test system: P12-Ichikawa
methodDescription: cell viability relative to DMSO control; higher = less cytotoxic
experimentalSetup: RPMI 5 mM glucose + 10% dialyzed FBS; 48 h; 0.0211 µM
Field format: number, assumed %, no unit text.

Some entries whose results are on file:
1. Cn1cc(-c2cnn3c(N)c(Br)c([C@@H]4CCCNC4)nc23)cn1; 95.1
2. OCCNC1CCCc2c1[nH]c1ccc(-c3ccccc3)cc21 (stereo not given); 109
3. CN(CCOc1ccc(NS(C)(=O)=O)cc1)CCc1ccc(NS(C)(=O)=O)cc1; 114
4. CCCCCCCCOc1ccccc1C(=O)Nc1ccc(C(=O)OCC[N+](C)(CC)CC)cc1; 90.3

Note: attention shifts to another entry.
Prompt: Identify cell viability associated with the compound COc1cc(Nc2ncc(F)c(Nc3ccc4c(n3)N(COP(=O)(O)O)C(=O)C(C)(C)O4)n2)cc(OC)c1OC
Response: 98

* * *

Tested on: NOMO1
methodDescription: cell viability relative to DMSO control; higher = less cytotoxic
experimentalSetup: HPLM + 10% dialyzed FBS; 48 h; 0.0211 µM
The entries below are paired with their reported cell viability.
Field format: number, assumed %, no unit text.

1) O=[S+]([O-])(CCSSCC[S+](=O)([O-])[O][Na])[O][Na]; 124
2) CN1/C=C(\N=C(NC2=CC=C(C=C2)C(=O)N3CCOCC3)/C1=O)/C4=C(C)C(=CC=C4)NC(=O)C5=CC=C(C=C5)C(C)(C)C; 85.2

Prompt: Identify cell viability associated with the compound O=C(O)CCNc1cc(N2CCc3ccccc3CC2)nc(-c2ccccn2)n1
Response: 138

Prompt: Identify cell viability associated with the compound Cc1cc(SCc2sc(-c3ccc(C(F)(F)F)cc3)nc2C)ccc1OCC(=O)O
Response: 124

Prompt: Identify cell viability associated with the compound NC(=O)c1ccc(-c2nc(-c3ccc4c(c3)OCO4)c(-c3ccccn3)[nH]2)cc1
Response: 134

Prompt: Identify cell viability associated with the compound CN[C@H]1[C@H](O[C@@H]2[C@H](O[C@@H]3[C@@H](O)[C@@H](O)[C@@H](NC(=N)N)[C@@H](O)[C@H]3NC(=N)N)O[C@H](C)[C@@]2(O)C=O)O[C@@H](CO)[C@@H](O)[C@H]1O
Response: 111

Prompt: Identify cell viability associated with the compound Cc1cc(-c2nnc3n2CCCCC3)c(C)n1-c1ccccc1
Response: 131

Prompt: Identify cell viability associated with the compound CC1=CC=C2\N=C/3N(CC[C@@]3(O)C(=O)C2=C1)C4=CC=CC=C4
Response: 104

* * *

The entries below are paired with their reported cell viability.
Tested on: NOMO1
methodDescription: cell viability relative to DMSO control; higher = less cytotoxic
experimentalSetup: HPLM + 10% dialyzed FBS; 48 h; 0.00234 µM

Some entries whose results are on file:
1. NC(=O)c1ccc(-c2nc(-c3ccc4c(c3)OCO4)c(-c3ccccn3)[nH]2)cc1; 135%
2. CCC(=O)OC1CCC2C3CCC/4=C/C(=O)CC[C@@]4(C)C3CC[C@]12C (stereo partly drawn); 112%
3. CN1/C=C(\N=C(NC2=CC=C(C=C2)C(=O)N3CCOCC3)/C1=O)/C4=C(C)C(=CC=C4)NC(=O)C5=CC=C(C=C5)C(C)(C)C; 114%
4. OCCNC1CCCc2c1[nH]c1ccc(-c3ccccc3)cc21 (stereo not drawn); 93.5%

Prompt: Identify cell viability associated with the compound CCNC(=O)Nc1ccc(-c2nc3c(c(N4CCOC[C@@H]4C)n2)CCN(C2COC2)C3)cc1
Response: 130%

Prompt: Identify cell viability associated with the compound Cc1cccc(N(C)C(=S)Oc2ccc3ccccc3c2)c1
Response: 120%

Prompt: Identify cell viability associated with the compound O=C([O-])[C@H](CC(=O)N1C[C@H]2CCCC[C@H]2C1)Cc1ccccc1
Response: 120%
